Entries and their shrunken log2 fold change values follow.
- System: Escherichia coli TOP10;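 further: peptides expressed intracellularly from a pBAD plasmid library in pooled LB shake-flask culture, induced with 0.3% L-arabinose, DNA abundance read by NGS, three biological replicates, DESeq2 with apeglm shrinkage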
- RUN_DESCRIPTION: shrunken log2 fold change of peptide-encoding DNA abundance (4.5 h post-induction vs induction); higher = less antimicrobial activity (less host growth inhibition)
- CONDITION_SUMMARY: time post-induction: 4.5 h; library: site-saturation at positions 5, 18, 19, 20

# BIOSEQUENCE, STUDY_SYSTEM, shrunken log2 fold change
records = [
    ("RRIRIRPPRLPRPRPRPNWHPRP", "Escherichia coli TOP10", -0.227),
    ("RRIRCRPPRLPRPRPRPVMVPRP", "Escherichia coli TOP10", -0.211),
    ("RRIRVRPPRLPRPRPRPYIMPRP", "Escherichia coli TOP10", -0.937),
    ("RRIRKRPPRLPRPRPRPKRHPRP", "Escherichia coli TOP10", 0.255),
    ("RRIRPRPPRLPRPRPRPDVMPRP", "Escherichia coli TOP10", 0.16),
    ("RRIRFRPPRLPRPRPRPHCSPRP", "Escherichia coli TOP10", 0.0308),
    ("RRIRVRPPRLPRPRPRPLQFPRP", "Escherichia coli TOP10", -0.149),
    ("RRIRNRPPRLPRPRPRPWSPPRP", "Escherichia coli TOP10", -0.245),
    ("RRIRNRPPRLPRPRPRPMGFPRP", "Escherichia coli TOP10", -0.0516),
    ("RRIRNRPPRLPRPRPRPNPTPRP", "Escherichia coli TOP10", -0.124),
    ("RRIRYRPPRLPRPRPRPECHPRP", "Escherichia coli TOP10", 0.0154),
    ("RRIRHRPPRLPRPRPRPNFAPRP", "Escherichia coli TOP10", 0.303),
    ("RRIRKRPPRLPRPRPRPLSSPRP", "Escherichia coli TOP10", 0.115),
    ("RRIRCRPPRLPRPRPRPSQEPRP", "Escherichia coli TOP10", 0.0585),
    ("RRIRIRPPRLPRPRPRPWHTPRP", "Escherichia coli TOP10", -0.113),
    ("RRIRCRPPRLPRPRPRPQKIPRP", "Escherichia coli TOP10", -0.252),
    ("RRIRMRPPRLPRPRPRPYAQPRP", "Escherichia coli TOP10", -0.291),
    ("RRIRCRPPRLPRPRPRPFYLPRP", "Escherichia coli TOP10", -0.564),
    ("RRIRDRPPRLPRPRPRPQIQPRP", "Escherichia coli TOP10", -0.221),
    ("RRIRLRPPRLPRPRPRPLSSPRP", "Escherichia coli TOP10", -0.0447),
    ("RRIRWRPPRLPRPRPRPITAPRP", "Escherichia coli TOP10", 0.0334),
    ("RRIRERPPRLPRPRPRPSRVPRP", "Escherichia coli TOP10", 0.0314),
    ("RRIRLRPPRLPRPRPRPMELPRP", "Escherichia coli TOP10", -0.00973),
    ("RRIRFRPPRLPRPRPRPGVMPRP", "Escherichia coli TOP10", 0.238),
    ("RRIRKRPPRLPRPRPRPVSEPRP", "Escherichia coli TOP10", 0.189),
    ("RRIRVRPPRLPRPRPRPLYKPRP", "Escherichia coli TOP10", -0.584),
    ("RRIRARPPRLPRPRPRPYAPPRP", "Escherichia coli TOP10", 0.162),
    ("RRIRFRPPRLPRPRPRPTKDPRP", "Escherichia coli TOP10", -0.196),
    ("RRIRERPPRLPRPRPRPPKMPRP", "Escherichia coli TOP10", -0.212),
    ("RRIRQRPPRLPRPRPRPLIQPRP", "Escherichia coli TOP10", -0.228),
    ("RRIRYRPPRLPRPRPRPHIVPRP", "Escherichia coli TOP10", -0.102),
    ("RRIRWRPPRLPRPRPRPHWLPRP", "Escherichia coli TOP10", 0.243),
]
